// provenance: ChEMBL document CHEMBL1143774

Listed below: Ki values for each entry.
Molecular target: Glucocorticoid receptor (Homo sapiens, UniProt P04150)
Sequence (P04150 whole entry): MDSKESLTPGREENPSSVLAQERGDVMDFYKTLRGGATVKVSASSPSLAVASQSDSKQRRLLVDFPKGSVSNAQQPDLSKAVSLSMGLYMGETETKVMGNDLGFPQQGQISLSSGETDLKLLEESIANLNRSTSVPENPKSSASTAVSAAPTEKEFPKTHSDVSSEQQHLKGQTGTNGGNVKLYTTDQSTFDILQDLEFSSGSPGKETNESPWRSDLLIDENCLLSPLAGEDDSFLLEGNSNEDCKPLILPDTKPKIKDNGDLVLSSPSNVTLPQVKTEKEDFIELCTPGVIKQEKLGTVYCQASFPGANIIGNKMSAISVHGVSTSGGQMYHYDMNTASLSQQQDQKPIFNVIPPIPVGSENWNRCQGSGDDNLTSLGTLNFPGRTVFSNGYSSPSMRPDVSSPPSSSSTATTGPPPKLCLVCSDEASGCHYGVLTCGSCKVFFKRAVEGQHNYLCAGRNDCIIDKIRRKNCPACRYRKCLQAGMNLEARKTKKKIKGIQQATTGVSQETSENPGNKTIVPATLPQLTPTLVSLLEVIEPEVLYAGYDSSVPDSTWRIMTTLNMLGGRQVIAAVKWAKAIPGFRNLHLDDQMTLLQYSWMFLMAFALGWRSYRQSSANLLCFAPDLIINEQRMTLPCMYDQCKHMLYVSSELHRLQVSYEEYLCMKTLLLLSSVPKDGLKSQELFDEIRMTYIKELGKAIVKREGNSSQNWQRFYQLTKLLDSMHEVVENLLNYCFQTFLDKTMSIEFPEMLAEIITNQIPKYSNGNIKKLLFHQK
Assay: Inhibition of human GR transcriptional activation by HepTAT cells
Assay type: cell-based
The figure you give is taken to be in µM; do not add the unit.

Example cases with answers are listed next.
CC#C[C@]1(O)CC[C@H]2[C@@H]3CCC4=CC(=O)CCC4=C3[C@@H](c3ccc(N(C)Cc4ccc(C(=O)O)cc4)cc3)C[C@@]21C ... 0.052
CC#C[C@]1(O)CC[C@H]2[C@@H]3CCC4=CC(=O)CCC4=C3[C@@H](c3ccc(N(C)CC(=O)N(Cc4ccc(C(=O)O)cc4)c4ccc(Br)cc4)cc3)C[C@@]21C ... 0.033

[Q] Ki of CC#C[C@]1(O)CC[C@H]2[C@@H]3CCC4=CC(=O)CCC4=C3[C@@H](c3ccc(N(C)CC(=O)Nc4ccc(C(=O)O)cc4)cc3)C[C@@]21C on Glucocorticoid receptor (Homo sapiens, UniProt P04150)?
[A] 0.075

====

target: Glucocorticoid receptor (Homo sapiens); experiment: Inhibition of human GR transcriptional activation by HepTAT cells; type: cell-based
experimental.endpoint: pKi
# reply with the number alone; pKi is -log10 of concentration in mol/L

CC#C[C@]1(O)CC[C@H]2[C@@H]3CCC4=CC(=O)CCC4=C3[C@@H](c3ccc(N(C)Cc4ccc(CC(=O)O)cc4)cc3)C[C@@]21C ... 7.49
CC#C[C@]1(O)CC[C@H]2[C@@H]3CCC4=CC(=O)CCC4=C3[C@@H](c3ccc(N(C)Cc4ccc(C(=O)NCC(=O)O)cc4)cc3)C[C@@]21C ... 7.44
CC#C[C@]1(O)CC[C@H]2[C@@H]3CCC4=CC(=O)CCC4=C3[C@@H](c3ccc(N(C)CC(=O)N(C)c4ccc(C(=O)O)cc4)cc3)C[C@@]21C ... 7.19
CC#C[C@]1(O)CC[C@H]2[C@@H]3CCC4=CC(=O)CCC4=C3[C@@H](c3ccc(N(C)CC(=O)Nc4nc(CC(=O)O)cs4)cc3)C[C@@]21C ... 7.51
CC#C[C@]1(O)CC[C@H]2[C@@H]3CCC4=CC(=O)CCC4=C3[C@@H](c3ccc(N(C)Cc4cccc(C(=O)O)c4)cc3)C[C@@]21C ... 6.95

[Q] Any idea what its pKi is? The molecule is CC#C[C@]1(O)CC[C@H]2[C@@H]3CCC4=CC(=O)CCC4=C3[C@@H](c3ccc(N(C)CC(=O)N(Cc4ccccc4)Cc4ccc(C(=O)O)cc4)cc3)C[C@@]21C
[A] 7.24

[Q] Reported pKi for CC#C[C@]1(O)CC[C@H]2[C@@H]3CCC4=CC(=O)CCC4=C3[C@@H](c3ccc(N(C)CCCCC(=O)O)cc3)C[C@@]21C : what is it?
[A] 6.90

====

biological target: Glucocorticoid receptor (Homo sapiens); assay: Inhibition of human GR expressed in hGRAF cells; assay type: cell-based
experimental.endpoint: pKi
Please express pKi as -log10 of the molar concentration.

Use the examples below as a reference point.
CC#C[C@]1(O)CC[C@H]2[C@@H]3CCC4=CC(=O)CCC4=C3[C@@H](c3ccc(N(C)CC(=O)N(Cc4ccc(C(=O)O)cc4)c4ccc(Br)cc4)cc3)C[C@@]21C ... 7.48
CC#C[C@]1(O)CC[C@H]2[C@@H]3CCC4=CC(=O)CCC4=C3[C@@H](c3ccc(N(C)CCCCC(=O)O)cc3)C[C@@]21C ... 7.82

[Q] Look up pKi for this compound: CC#C[C@]1(O)CC[C@H]2[C@@H]3CCC4=CC(=O)CCC4=C3[C@@H](c3ccc(N(C)CC(=O)Nc4nc(CC(=O)O)cs4)cc3)C[C@@]21C
[A] 6.12

[Q] Which pKi value is on record for CC#C[C@]1(O)CC[C@H]2[C@@H]3CCC4=CC(=O)CCC4=C3[C@@H](c3ccc(N(C)CC(=O)N(C)c4ccc(C(=O)O)cc4)cc3)C[C@@]21C ?
[A] 7.68
